ASSAY: Selectivity ratio of IC50 for human sigma-1 receptor to IC50 for rat sigma-2 receptor
READOUT LABEL: Ratio IC50
The answer should be written as a number, with no unit following it.

Some solved cases for reference:
                                   compound  recorded_number
0  CCN1CCN(c2ccc(C(c3ccccc3)C34CC5CC(CC(C5)C3)C4)cc2)CC1 (centres undefined)              1.4
1  CN1CCN(c2ccc(C(c3ccccc3)C34CC5CC(CC(C5)C3)C4)cc2)CC1 (centres undefined)             11.8
2  c1ccc(CN2CCN(c3ccc(C(c4ccccc4)C45CC6CC(CC(C6)C4)C5)cc3)CC2)cc1 (centres undefined)              1.9

Please examine the following record next.
What value of Ratio IC50 has been reported for the following compound? c1ccc(C(c2ccc(N3CCN(C4CCCCC4)CC3)cc2)C23CC4CC(CC(C4)C2)C3)cc1 (centres undefined)
360

###

GI50 reference
Test system: HL-60(TB)
ASSAY: Growth inhibition of human HL-60(TB) cells after 48 hrs by SRB assay
Format: functional
DETAILS: HL-60, 48 h
The reply should contain only the number, in µM.

>>> print(df.to_string())
                                   molecule  scale_unit  recorded_number
0  CCN1CCN(c2ccc(C(c3ccccc3)C34CC5CC(CC(C5)C3)C4)cc2)CC1 (centres undefined)          µM             6.39
1    O=c1[nH]cc(F)c(=O)[nH]1 [FLUOROURACIL]          µM              100
2  c1ccc(C(c2ccc(N3CCNCC3)cc2)C23CC4CC(CC(C4)C2)C3)cc1 (centres undefined)          µM             5.97

What value of GI50 has been reported for the following molecule? CN1CCN(c2ccc(C(c3ccccc3)C34CC5CC(CC(C5)C3)C4)cc2)CC1 (centres undefined)
5.04

###

pIC50 reference
ASSAY: Displacement of [3H]BTX-B from Na+ channel site 2 after 60 mins by liquid scintillation spectroscopy
The scale used: pIC50 is minus the common logarithm of the concentration in molar units.

                                   molecule  recorded_number
0  CCN1CCN(c2ccc(C(c3ccccc3)C34CC5CC(CC(C5)C3)C4)cc2)CC1 (stereo unspecified)             6.15
1  c1ccc(C(c2ccc(N3CCN(C4CCCCC4)CC3)cc2)C23CC4CC(CC(C4)C2)C3)cc1 (stereo unspecified)             6.15
2  CN1CCN(c2ccc(C(c3ccccc3)C34CC5CC(CC(C5)C3)C4)cc2)CC1 (stereo unspecified)             5.92
3  c1ccc(CN2CCN(c3ccc(C(c4ccccc4)C45CC6CC(CC(C6)C4)C5)cc3)CC2)cc1 (stereo unspecified)             5.80

Please examine the following record next.
What value of pIC50 has been reported for the following molecule? c1ccc(C(c2ccc(N3CCNCC3)cc2)C23CC4CC(CC(C4)C2)C3)cc1 (stereo unspecified)
5.92

###

TARGET DESC: Sigma non-opioid intracellular receptor 1 (Homo sapiens)
Sequence (Q99720 whole entry): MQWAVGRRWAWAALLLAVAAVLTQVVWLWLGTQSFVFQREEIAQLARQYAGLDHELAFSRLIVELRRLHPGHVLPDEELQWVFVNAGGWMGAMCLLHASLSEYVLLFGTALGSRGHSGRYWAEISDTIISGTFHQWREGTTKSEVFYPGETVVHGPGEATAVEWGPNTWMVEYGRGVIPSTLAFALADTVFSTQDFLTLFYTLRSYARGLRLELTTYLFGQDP
ASSAY: Displacement of [3H](+)pentazocine from sigma-1 receptor expressed in human Jurkat cell membranes after 2 hrs by liquid scintillation spectroscopy
READOUT LABEL: IC50 (nM)
The reply should contain only the number, in nM.

Some solved cases for reference:
>>> print(df.to_string())
                                   compound  readout_label  recorded_number
0  CCN1CCN(c2ccc(C(c3ccccc3)C34CC5CC(CC(C5)C3)C4)cc2)CC1 (stereo unspecified)           IC50              2.9
1  c1ccc(CN2CCN(c3ccc(C(c4ccccc4)C45CC6CC(CC(C6)C4)C5)cc3)CC2)cc1 (stereo unspecified)           IC50             63.3
2  CN1CCN(c2ccc(C(c3ccccc3)C34CC5CC(CC(C5)C3)C4)cc2)CC1 (stereo unspecified)           IC50              3.2
3  c1ccc(C(c2ccc(N3CCN(C4CCCCC4)CC3)cc2)C23CC4CC(CC(C4)C2)C3)cc1 (stereo unspecified)           IC50             0.27

Please examine the following record next.
What value of IC50 has been reported for the following compound? c1ccc(C(c2ccc(N3CCNCC3)cc2)C23CC4CC(CC(C4)C2)C3)cc1 (stereo unspecified)
12.4

// data source = ChEMBL document CHEMBL2021794
